measurement.description: Plasma concentration in mouse at 10 mg/kg, ip measured after 30 mins by LC-MS/MS analysis
observed.property: concentration at 0.5 h (ng/mL)
Return type: number; implicit unit ng/mL.

In: Can you look up the measured concentration at 0.5 h of O=C(O)COCCN1CCN(C(c2ccccc2)c2ccc(Cl)cc2)CC1 (stereo unspecified) [CETIRIZINE] for me?
Out: 8460

---

System: Kidney
measurement.description: Release of H2S in mouse kidney homogenate at 10 to 300 uM measured for 10 mins by methylene blue formation assay
Format: ADME, tissue-based
conditions: tissue homogenate, dose 10-300 µM
observed.property: Drug metabolism

Consider the reported Drug metabolism for these molecules:
- molecule: "C[C@H]1CN(C2CCC(C#N)(c3ccc(F)cc3)CC2)CC[C@@]1(C(=O)Oc1ccc(-c2cc(=S)ss2)cc1)c1ccccc1 (some centres undefined)"
  observed.property: "Drug metabolism"
  result: "Dose-Dependent Effect"
- molecule: "CCOCCn1c(C2CCN(CCc3ccc(C(C)(C)C(=O)Oc4ccc(-c5cc(=S)ss5)cc4)cc3)CC2)nc2ccccc21"
  observed.property: "Drug metabolism"
  result: "Dose-Dependent Effect"
- molecule: "NC(=S)c1ccc(OCCCCCCOC(=O)COCCN2CCN(C(c3ccccc3)c3ccc(Cl)cc3)CC2)cc1 (racemic)"
  observed.property: "Drug metabolism"
  result: "Dose-Dependent Effect"
- molecule: "NC(=S)c1ccc(OC(=O)CCC(=O)OCCOCCN2CCN(C(c3ccccc3)c3ccc(Cl)cc3)CC2)cc1 (centres undefined)"
  observed.property: "Drug metabolism"
  result: "Dose-Dependent Effect"
- molecule: "C[C@H]1CN(C2CCC(C#N)(c3ccc(F)cc3)CC2)CC[C@@]1(C(=O)Oc1ccc(C(N)=S)cc1)c1ccccc1 (some centres undefined)"
  observed.property: "Drug metabolism"
  result: "Dose-Dependent Effect"

In: Which Drug metabolism is listed for "CCOCCn1c(C2CCN(CCc3ccc(C(C)(C)C(=O)Oc4ccc(C(N)=S)cc4)cc3)CC2)nc2ccccc21" ?
Out: Dose-Dependent Effect

In: Can you share its Drug metabolism? I mean this molecule: O=C(COCCN1CCN(C(c2ccccc2)c2ccc(Cl)cc2)CC1)OCCCCCCOc1ccc(-c2cc(=S)ss2)cc1 (racemic)
Out: Dose-Dependent Effect

In: Look up Drug metabolism: O=C(COCCN1CCN(C(c2ccccc2)c2ccc(Cl)cc2)CC1)OCCOc1ccc(-c2cc(=S)ss2)cc1 (racemic)
Out: Dose-Dependent Effect

In: Tell me the measured Drug metabolism of O=C(CCC(=O)Oc1ccc(-c2cc(=S)ss2)cc1)OCCOCCN1CCN(C(c2ccccc2)c2ccc(Cl)cc2)CC1 (racemic) , please.
Out: Dose-Dependent Effect
